Catalogue of IC50 readings, one per entry.
- Assayed target: canine TRPM8 (Canis lupus familiaris)
- Construct: expressed in transfected cells
- Protocol notes: In vitro canine TRPM8 functional assay (Ca2+-sensitive dye, FLIPR/FDSS, icilin activation)
- Type: cell-based
- Condition label: HEK293 cells expressing canine TRPM8, icilin activation; eight-point dose-response; read-out: IC50
// units = nM; emit number, no label

As a guide, the following entries are already answered.
>>> numeric_readout("CC(C)OP(=O)(OC(C)C)C(Cc1ccc(F)c(F)c1)c1sc2cccc(F)c2c1Br (stereo not shown)")
32
>>> numeric_readout("CC(C)OP(=O)(OC(C)C)C(Cc1cc(Cl)ccc1F)c1sc2ccccc2c1Br (racemic)")
17
>>> numeric_readout("CCOP(=O)(OCC)C(Cc1cc2ccccc2s1)c1cc2ccccc2s1 (stereo not shown)")
540
>>> numeric_readout("CC(C)OP(=O)(OC(C)C)C(Cc1ccc(OC(F)(F)F)c(Cl)c1)c1sc2ccccc2c1Cl (stereo not shown)")
57
>>> numeric_readout("CSc1ccc(CC(c2sc3ccccc3c2Cl)P(=O)(OC(C)C)OC(C)C)cc1 (stereo not shown)")
56

Supply recorded IC50 for CCOP(=O)(OCC)C(Cc1ccc(F)c(C(F)(F)F)c1)c1sc2ccccc2c1Cl (racemic) [Cpd 298] here. 85

Supply recorded IC50 for CCOP(=O)(OCC)C(Cc1ccc(F)c(F)c1)c1sc2ccccc2c1-c1ccsc1 (racemic) here. 104

====

Catalogue of % I (1 μM) readings, one per entry.
- Assayed target: canine TRPM8 (Canis lupus familiaris, UniProt Q1A7N1)
- Construct: expressed in transfected cells
- Sequence (Q1A7N1 1-1104): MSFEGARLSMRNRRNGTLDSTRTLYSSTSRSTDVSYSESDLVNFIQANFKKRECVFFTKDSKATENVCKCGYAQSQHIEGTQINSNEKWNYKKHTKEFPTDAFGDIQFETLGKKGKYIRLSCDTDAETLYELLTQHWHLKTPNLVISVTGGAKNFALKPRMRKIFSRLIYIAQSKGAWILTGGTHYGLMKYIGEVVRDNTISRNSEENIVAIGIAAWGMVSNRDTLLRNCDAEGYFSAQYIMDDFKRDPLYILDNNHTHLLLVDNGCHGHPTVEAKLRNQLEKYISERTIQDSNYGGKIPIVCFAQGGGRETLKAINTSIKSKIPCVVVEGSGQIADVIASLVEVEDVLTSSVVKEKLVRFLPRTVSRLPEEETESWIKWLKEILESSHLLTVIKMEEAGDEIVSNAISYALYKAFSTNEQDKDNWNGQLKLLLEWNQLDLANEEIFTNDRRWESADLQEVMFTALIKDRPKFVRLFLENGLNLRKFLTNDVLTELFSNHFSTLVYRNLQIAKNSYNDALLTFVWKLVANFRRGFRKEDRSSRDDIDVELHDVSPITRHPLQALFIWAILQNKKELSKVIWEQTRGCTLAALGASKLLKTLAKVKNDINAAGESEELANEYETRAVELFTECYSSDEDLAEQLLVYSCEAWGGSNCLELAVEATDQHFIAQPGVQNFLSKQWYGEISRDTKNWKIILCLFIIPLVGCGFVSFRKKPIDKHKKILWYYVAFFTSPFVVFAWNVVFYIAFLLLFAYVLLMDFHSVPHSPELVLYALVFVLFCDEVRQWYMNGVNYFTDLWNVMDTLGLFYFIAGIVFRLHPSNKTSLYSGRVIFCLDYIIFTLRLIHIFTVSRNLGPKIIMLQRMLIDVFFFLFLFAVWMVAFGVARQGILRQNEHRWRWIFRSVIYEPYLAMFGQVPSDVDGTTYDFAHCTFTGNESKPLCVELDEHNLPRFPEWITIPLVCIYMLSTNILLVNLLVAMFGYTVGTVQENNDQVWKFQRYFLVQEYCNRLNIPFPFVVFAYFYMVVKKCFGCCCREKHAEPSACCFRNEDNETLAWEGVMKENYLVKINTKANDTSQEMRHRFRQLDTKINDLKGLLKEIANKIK
- Protocol notes: In vitro canine TRPM8 functional assay (Ca2+-sensitive dye, FLIPR/FDSS, icilin activation)
- Assay type: cell-based
- Condition label: 1 μM compound; HEK293 cells expressing canine TRPM8, icilin activation
// units = %; emit number, no label

As a guide, the following entries are already answered.
>>> numeric_readout("CC(C)OP(=O)(OC(C)C)C(Cc1cc(F)cc(F)c1)c1cc2ccccc2s1 (stereo not drawn) [Cpd 121]")
103
>>> numeric_readout("CC(C)OP(=O)(OC(C)C)C(Cc1cccc(F)c1F)c1cc2ccccc2s1 (stereo not drawn) [Cpd 122]")
102
>>> numeric_readout("CCOP(=O)(OCC)C(Cc1ccc(F)c(F)c1)c1sc2c(C(F)(F)F)cccc2c1C (stereo not drawn) [Cpd 116]")
64
>>> numeric_readout("CCOP(=O)(OCC)C(Cc1cccc(Cl)c1Cl)c1cc2ccccc2s1 (stereo not drawn) [Cpd 100]")
82
>>> numeric_readout("CC(C)OP(=O)(OC(C)C)C(Cc1ccccc1F)c1sc2cccc(Br)c2c1Br (stereo not drawn) [Cpd 198]")
98

Alright, here's another compound for you.
Recall the reported % I (1 μM) of CCOP(=O)(OCC)C(Cc1ccc(F)c(F)c1)c1cc2ccccc2o1 (stereo not drawn) [Cpd 265] when tested on canine TRPM8 (Canis lupus familiaris, UniProt Q1A7N1). 95

====

- Assayed target: canine TRPM8 (Canis lupus familiaris, UniProt Q1A7N1)
- Construct: expressed in transfected cells
- Protocol notes: In vitro canine TRPM8 functional assay (Ca2+-sensitive dye, FLIPR/FDSS, icilin activation)
- Format: cell-based
- Condition label: 0.5 μM compound; HEK293 cells expressing canine TRPM8, icilin activation
Catalogue of % I (0.5 μM) readings, one per entry.
// units = %; emit number, no label

As a guide, the following entries are already answered.
>>> numeric_readout("CC(C)OP(=O)(OC(C)C)C(Cc1ccccc1C(F)(F)F)c1sc2ccccc2c1Cl (racemic) [Cpd 173]")
103
>>> numeric_readout("CCOP(=O)(OCC)C(Cc1ccc(F)c(C(F)(F)F)c1)c1sc2cccc(F)c2c1Br (racemic) [Cpd 223]")
102

Supply recorded % I (0.5 μM) for CCOP(=O)(OCC)C(Cc1ccc(S(=O)(=O)C(F)(F)F)cc1)c1sc2ccccc2c1Cl (racemic) [Cpd 300] here. 103

Supply recorded % I (0.5 μM) for CC(C)OP(=O)(OC(C)C)C(Cc1cccc(Br)c1)c1sc2ccccc2c1Cl (stereo not shown) [Cpd 182] here. 104

Supply recorded % I (0.5 μM) for CCOP(=O)(OCC)C(Cc1cc(Cl)ccc1F)c1sc2ccccc2c1Cl (racemic) [Cpd 305] here. 102

Supply recorded % I (0.5 μM) for CCOP(=O)(OCC)C(Cc1ccc(O)c(F)c1)c1sc2ccccc2c1Br (racemic) [Cpd 226] here. 34

Supply recorded % I (0.5 μM) for CCOP(=O)(OCC)C(Cc1ccc(F)c(Cl)c1)c1sc2ccccc2c1Br (racemic) [Cpd 244] here. 103
